Method notes: Compound was evaluated for maximum concentration (Cmax) in suspension of 0.5% methylcellulose at a dose of 10 mg/kg in rat
Type: ADME, organism-based
Set-up: dose 10 mg/kg
Details: in vivo
Metric name: Cmax (ng/mL)

I: CCN(C/C=C/C#CC(C)(C)C)Cc1cccc(OCC(C)(C)OCc2ccsc2)c1.Cl
II: CCN(C/C=C/C#CC(C)(C)C)Cc1cccc(OCc2cc(-c3ccsc3)cs2)c1
Query string: Returns: the label, I or II , whose recorded Cmax is the lower number. Write the label of whichever entry you select.
Result string: II
(II: 329 ng/mL, I: 486 ng/mL)

* * *

Method notes: Compound was evaluated for maximum time(Tmax) in suspension of 0.5% methylcellulose at a dose of 10 mg/kg in rat
Assay type: ADME, organism-based
Set-up: dose 10 mg/kg
Details: in vivo
Metric name: Tmax (h)

[[record]]
query_smiles = "CCN(C/C=C/C#CC(C)(C)C)Cc1cccc(OCC(C)(C)OCc2ccsc2)c1.Cl"
numeric_readout = 1.17

[[record]]
query_smiles = "CCN(C/C=C/C#CC(C)(C)C)Cc1cccc(OCc2cc(-c3ccsc3)cs2)c1"
numeric_readout = 1.67


* * *

Method notes: Compound was evaluated for area under the curve (0-8 h)
Assay type: ADME, organism-based
Design: time < 8 hr
Details: rat, in vivo
Metric name: AUC(0-t) at 8 h (ng·h/mL)

[[record]]
query_smiles = "CCN(C/C=C/C#CC(C)(C)C)Cc1cccc(OCc2cc(-c3ccsc3)cs2)c1"
value_unit = "ng·h/mL"
numeric_readout = 1390

[[record]]
query_smiles = "CCN(C/C=C/C#CC(C)(C)C)Cc1cccc(OCC(C)(C)OCc2ccsc2)c1.Cl"
value_unit = "ng·h/mL"
numeric_readout = 1870


* * *

Species on record: Homo sapiens
Method notes: In vitro inhibitory activity was evaluated against human squalence epoxidase
Format: functional
Details: Homo sapiens
Metric name: IC50 (nM)

[[record]]
query_smiles = "CCN(C/C=C/C#CC(C)(C)C)Cc1cccc(OCC(C)(C)OC(=O)c2ccsc2)c1"
metric_name = "IC50"
numeric_readout = 23


1: CN(C/C=C/C#CC(C)(C)C)Cc1cccc(OCC(C)(C)OCc2ccsc2)c1
2: CCN(C/C=C/C#CC(C)(C)C)Cc1cccc(OCC(CC)(CC)OCc2ccsc2)c1
Query string: Compare 1 and 2 and name the one whose reported IC50 is smaller. The response must carry the label of the picked entry.
Result string: 1
(1: 11 nM, 2: 120 nM)

a: C=CCC(CC=C)(COc1cccc(CN(CC)C/C=C/C#CC(C)(C)C)c1)OCc1ccsc1
b: CCN(C/C=C/C#CC(C)(C)C)Cc1cccc(OCc2cc(-c3ccsc3)cs2)c1
c: CCN(C/C=C/C#CC(C)(C)C)Cc1cccc(OCCOCc2ccsc2)c1
Query string: Order these by IC50, descending, and give the full ranking. Give the labels in the order requested.
Result string: a, c, b

P: CCN(C/C=C/C#CC(C)(C)C)Cc1cccc(OCC(C)(C)OCc2ccsc2)c1
Q: CCCN(C/C=C/C#CC(C)(C)C)Cc1cccc(OCC(C)(C)OCc2ccsc2)c1
Query string: For the pair P and Q , which member has the lower IC50 number? Refer to your chosen entry by its label in the reply.
Result string: P

* * *

Method notes: Partition coefficient (logP)
Type: physicochemical
Details: octanol/water; read-out: logP
Metric name: logP

[[record]]
query_smiles = "CCN(C/C=C/C#CC(C)(C)C)Cc1cccc(OCCOCc2ccsc2)c1"
metric_name = "logP"
numeric_readout = 6.6

[[record]]
query_smiles = "CCN(C/C=C/C#CC(C)(C)C)Cc1cccc(OCC(C)(C)OC(=O)c2ccsc2)c1"
metric_name = "logP"
numeric_readout = 7.48

[[record]]
query_smiles = "CCN(C/C=C/C#CC(C)(C)C)Cc1cccc(OCc2cc(-c3ccsc3)cs2)c1"
metric_name = "logP"
numeric_readout = 8.19

[[record]]
query_smiles = "CN(C/C=C/C#CC(C)(C)C)Cc1cccc(OCC(C)(C)OCc2ccsc2)c1"
metric_name = "logP"
numeric_readout = 6.78

[[record]]
query_smiles = "CCCN(C/C=C/C#CC(C)(C)C)Cc1cccc(OCC(C)(C)OCc2ccsc2)c1"
metric_name = "logP"
numeric_readout = 7.83

[[record]]
query_smiles = "C=CCC(CC=C)(COc1cccc(CN(CC)C/C=C/C#CC(C)(C)C)c1)OCc1ccsc1"
metric_name = "logP"
numeric_readout = 8.45

[[record]]
query_smiles = "CCN(C/C=C/C#CC(C)(C)C)Cc1cccc(OCC(C)(C)OCc2ccsc2)c1"
metric_name = "logP"
numeric_readout = 7.3

[[record]]
query_smiles = "CCN(C/C=C/C#CC(C)(C)C)Cc1cccc(OCC(CC)(CC)OCc2ccsc2)c1"
metric_name = "logP"
numeric_readout = 8.36

